Tested on: Staphylococcus aureus
Test: In vitro activity against MRSA (A27217; heterogeneous strain) by standard broth dilution method
Type: functional
Details: Staphylococcus aureus; read-out: MIC
Assign MIC to each entry below.
Just the number in µg/mL, nothing appended.

(Q) Look up and report measured MIC for this entry: O=C(CSc1cc(Cl)ccc1Cl)N[C@@H]1C(=O)N2C(C(=O)[O-])=C(C[n+]3cccc4[nH]cnc43)CS[C@H]12
(A) 1

(Q) Look up and report measured MIC for this entry: NC(=O)COc1cccc2c[n+](CC3=C(C(=O)[O-])N4C(=O)[C@@H](NC(=O)CSc5cc(Cl)ccc5Cl)[C@H]4SC3)ccc12
(A) 2

(Q) Look up and report measured MIC for this entry: O=C(CSc1cc(Cl)ccc1Cl)N[C@@H]1C(=O)N2C(C(=O)[O-])=C(C[n+]3cccc4c3CCCC4)CS[C@H]12
(A) 1

(Q) Look up and report measured MIC for this entry: O=C(CSc1cc(Cl)ccc1Cl)N[C@@H]1C(=O)N2C(C(=O)[O-])=C(C[n+]3ccc4c(c3)CCCC4)CS[C@H]12
(A) 2

(Q) Look up and report measured MIC for this entry: C[N+]1(CC2=C(C(=O)[O-])N3C(=O)[C@@H](NC(=O)CSc4cc(Cl)ccc4Cl)[C@H]3SC2)[C@@H]2CC[C@H]1C[C@@H](O)C2 (stereo in doubt; 6r)
(A) 1

(Q) Look up and report measured MIC for this entry: O=C(CSc1cc(Cl)ccc1Cl)N[C@@H]1C(=O)N2C(C(=O)[O-])=C(C[n+]3ccc4c(O)cccc4c3)CS[C@H]12
(A) 1

(Q) Look up and report measured MIC for this entry: NC(=O)c1ccc2n(cc[n+]2CC2=C(C(=O)[O-])N3C(=O)[C@@H](NC(=O)CSc4cc(Cl)ccc4Cl)[C@H]3SC2)c1
(A) 2

(Q) Look up and report measured MIC for this entry: O=C(CSc1cc(Cl)ccc1Cl)N[C@@H]1C(=O)N2C(C(=O)[O-])=C(C[N+]34CCN(CC3)CC4)CS[C@H]12
(A) 2

(Q) Look up and report measured MIC for this entry: O=C(CSc1cc(Cl)ccc1Cl)N[C@@H]1C(=O)N2C(C(=O)[O-])=C(C[N+]34CN5CN(CN(C5)C3)C4)CS[C@H]12
(A) 4

(Q) Look up and report measured MIC for this entry: O=C(CSc1cc(Cl)ccc1Cl)N[C@@H]1C(=O)N2C(C(=O)[O-])=C(C[n+]3ccc4ccccc4c3)CS[C@H]12
(A) 2

(Q) Look up and report measured MIC for this entry: O=C(CSc1cc(Cl)ccc1Cl)N[C@@H]1C(=O)N2C(C(=O)[O-])=C(C[n+]3cccc4cc[nH]c43)CS[C@H]12
(A) 1

(Q) Look up and report measured MIC for this entry: NCCC(=O)NC1C[N+]2(CC3=C(C(=O)[O-])N4C(=O)[C@@H](NC(=O)CSc5cc(Cl)ccc5Cl)[C@H]4SC3)CCC1CC2 (some centres not stated)
(A) 2

---

Test system: Staphylococcus aureus
Assay: In vitro activity against MRSA (A27621; homogeneous strain) by standard broth dilution method
Format: functional
Conditions: Staphylococcus aureus; read-out: MIC
READOUT_TYPE: MIC (µg/mL)
Just the number in µg/mL, nothing appended.

(Q) Look up and report measured MIC for this entry: NC(=O)c1ccc2n(cc[n+]2CC2=C(C(=O)[O-])N3C(=O)[C@@H](NC(=O)CSc4cc(Cl)ccc4Cl)[C@H]3SC2)c1
(A) 2

(Q) Look up and report measured MIC for this entry: O=C(CSc1cc(Cl)ccc1Cl)N[C@@H]1C(=O)N2C(C(=O)[O-])=C(C[n+]3ccc4c(c3)CCCC4)CS[C@H]12
(A) 4

(Q) Look up and report measured MIC for this entry: O=C(C[N+]12CCN(CC1)CC2)N[C@@H]1C(=O)N2C(C(=O)[O-])=C(CSc3cc(Cl)ccc3Cl)CS[C@H]12
(A) 128

(Q) Look up and report measured MIC for this entry: C[N+]1(CC2=C(C(=O)[O-])N3C(=O)[C@@H](NC(=O)CSc4cc(Cl)ccc4Cl)[C@H]3SC2)[C@@H]2CC[C@H]1C[C@@H](O)C2 (stereo in doubt; 6r)
(A) 2

(Q) Look up and report measured MIC for this entry: C[N+]1(CC2=C(C(=O)[O-])N3C(=O)[C@@H](NC(=O)CSc4cc(Cl)ccc4Cl)[C@H]3SC2)C2CCCC1CC2 (some centres undefined)
(A) 2

(Q) Look up and report measured MIC for this entry: O=C(CSc1cc(Cl)ccc1Cl)N[C@@H]1C(=O)N2C(C(=O)[O-])=C(C[n+]3ccn4ccccc43)CS[C@H]12
(A) 2

(Q) Look up and report measured MIC for this entry: O=C(CSc1cc(Cl)ccc1Cl)N[C@@H]1C(=O)N2C(C(=O)[O-])=C(C[N+]34CCN(CC3)CC4)CS[C@H]12
(A) 4

(Q) Look up and report measured MIC for this entry: NC(=O)COc1cccc2c[n+](CC3=C(C(=O)[O-])N4C(=O)[C@@H](NC(=O)CSc5cc(Cl)ccc5Cl)[C@H]4SC3)ccc12
(A) 2

(Q) Look up and report measured MIC for this entry: NCCC(=O)NC1C[N+]2(CC3=C(C(=O)[O-])N4C(=O)[C@@H](NC(=O)CSc5cc(Cl)ccc5Cl)[C@H]4SC3)CCC1CC2 (some centres undefined)
(A) 4

(Q) Look up and report measured MIC for this entry: NCC(=O)NC1C[N+]2(CC3=C(C(=O)[O-])N4C(=O)[C@@H](NC(=O)CSc5cc(Cl)ccc5Cl)[C@H]4SC3)CCC1CC2 (some centres undefined)
(A) 4

(Q) Look up and report measured MIC for this entry: O=C(CSc1cc(Cl)ccc1Cl)N[C@@H]1C(=O)N2C(C(=O)[O-])=C(C[n+]3cccc4c3CCCC4)CS[C@H]12
(A) 2

(Q) Look up and report measured MIC for this entry: O=C(CSc1cc(Cl)ccc1Cl)N[C@@H]1C(=O)N2C(C(=O)[O-])=C(C[n+]3cccc4[nH]cnc43)CS[C@H]12
(A) 2

(Q) Look up and report measured MIC for this entry: O=C(CSc1cc(Cl)ccc1Cl)N[C@@H]1C(=O)N2C(C(=O)[O-])=C(C[N+]34CCC(CC3)CC4)CS[C@H]12
(A) 4

(Q) Look up and report measured MIC for this entry: O=C(CSc1cc(Cl)ccc1Cl)N[C@@H]1C(=O)N2C(C(=O)[O-])=C(C[N+]34CN5CN(CN(C5)C3)C4)CS[C@H]12
(A) 8
